Data origin: PubChem BioAssay (NCI)

- Tested on: MCF7 breast
- experimental protocol: NCI-60 one-dose screen, 48 h (100 = growth as untreated, 0 = no growth, -100 = all killed)
- test conditions: 10 µM unless noted
The panel holds about 83,000 compounds, 20% with a hit somewhere; the sample as a whole holds those more often.
With a cut-off of 60%, any growth strictly below it is called satisfied; any growth meeting it or above is called not satisfied.

>  <compound>
COc1ccc2[nH]c(C(=O)OCc3ccc4c(Br)cc(Br)c(O)c4n3)cc2c1

>  <measured on>
MCF7 breast

>  <qualitative label>
satisfied

$$$$
>  <compound>
Cn1nc(C(F)(F)F)cc1-c1cc(Cl)c(OCc2ccc(Cl)cc2)c(-c2ccc(Cl)c(C(F)(F)F)c2)c1O

>  <measured on>
MCF7 breast

>  <qualitative label>
satisfied

$$$$
>  <compound>
Oc1ccc(-c2cnc(-c3ccccc3)[nH]2)c(O)c1

>  <measured on>
MCF7 breast

>  <qualitative label>
not satisfied

$$$$

INPUT: Quick check: growth of O=C(CSc1ccc(Cl)cc1)Nc1ccc(-c2nc3ccccc3s2)c(Cl)c1 under 60%?
OUTPUT: satisfied

INPUT: Is 60% strictly greater than the compound's reported growth? compound: CN1CCN(Cc2ccc(NC(=O)c3cncc(C#Cc4ncc5ccccn45)c3)cc2C(F)(F)F)CC1
OUTPUT: satisfied
